Record: IAr reported on UniProt:P48039.
Sequence (P48039 whole entry): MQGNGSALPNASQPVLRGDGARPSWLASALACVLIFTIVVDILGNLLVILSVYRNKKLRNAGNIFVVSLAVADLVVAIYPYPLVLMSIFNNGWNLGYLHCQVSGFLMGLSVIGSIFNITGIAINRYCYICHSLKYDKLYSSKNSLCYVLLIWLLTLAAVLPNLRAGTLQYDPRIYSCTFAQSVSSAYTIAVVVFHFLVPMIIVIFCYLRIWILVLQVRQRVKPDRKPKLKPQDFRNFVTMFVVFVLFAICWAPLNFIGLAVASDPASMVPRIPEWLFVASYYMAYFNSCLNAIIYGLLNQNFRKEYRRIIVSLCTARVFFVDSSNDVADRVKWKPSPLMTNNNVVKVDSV
measurementKind: IAr

>>> experimentalresult("CCC(=O)NCCN1c2ccccc2C=Cc2ccc(OC)cc21")
-0.04
>>> experimentalresult("COc1ccc2c(c1)C(CNC(C)=O)Cc1ccccc1C2=O (configuration not stated)")
-0.14
>>> experimentalresult("CC(=O)NCC1Cc2ccccc2Cc2ccccc21 (configuration not stated)")
0.03
>>> experimentalresult("COc1ccc2c(c1)C(CNC(C)=O)Cc1ccccc1C2 (configuration not stated)")
-0.18
>>> experimentalresult("CC(=O)NCC1=Cc2ccccc2Cc2ccccc21")
0.02
>>> experimentalresult("CCC(=O)NCC1Cc2ccccc2Cc2ccc(OC)cc21 (configuration not stated)")
-0.1
>>> experimentalresult("CCC(=O)NCCN1c2ccccc2CCc2ccccc21")
0.03
>>> experimentalresult("COc1ccc2[nH]cc(CCNC(C)=O)c2c1")
1
>>> experimentalresult("CC(=O)NCCC1Cc2ccccc2Cc2ccccc21 (configuration not stated)")
0.21
>>> experimentalresult("COc1ccc2c(c1)C(CCNC(C)=O)Cc1ccccc1C2 (configuration not stated)")
-0.07
>>> experimentalresult("CCCC(=O)NCC1Cc2ccccc2Cc2ccc(OC)cc21 (configuration not stated)")
-0.09
>>> experimentalresult("CC(=O)NCCN1c2ccccc2C=Cc2ccccc21")
0.01
